Biological target: T1, Human IL-13 (human, UniProt P35225 35-146)
T1 construct: also called human interleukin 13 (Peprotech); the antigen
T1 sequence (P35225 35-146 limits assumed): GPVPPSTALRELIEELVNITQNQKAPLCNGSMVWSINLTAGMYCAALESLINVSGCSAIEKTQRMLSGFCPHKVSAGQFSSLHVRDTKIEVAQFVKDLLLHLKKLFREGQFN
Experiment: IC50 of the parent scFv divided by IC50 of the clone, biochemical receptor-ligand inhibition assay, purified scFv
measured.quantity: Fld improvement (fold)
Write the number in fold without appending the unit.

binder: 13NG0069 (scFv, V domains shown, purified scFv from the mini-recombination library; member of group m20; also called ZZ0SEA-A03; copies: 1 + 1) VH: QVQLVQSGAEVKKPGASVKVSCKASGYTFTNYGLSWVRQAPGQGLEWMGWINYDGGNTQYGQEFQGRVTMTTDTSTSTAYMELRSLRSDDTAVYYCARDSSSSWARWFFDLWGRGTLVTVSS VL: SYVLTQPPSVSVAPGKTARIPCGGNMVGARLVHWYQQKPGQAPVLIIMDDIDRPSGIPERFSGSNSGNTATLTISRVEAGDEADYYCQVWDTGSRPVVFGGGTKLTVL
Fld improvement [fold]: 5.18
--
binder: 13NG0068 (scFv, V domains shown, purified scFv from the mini-recombination library; member of group m20; also called ZZ0SEB-B02; copies: 1 + 1) VH: QVQLVQSGAEVKKPGASVKVSCKASGYTFTNYGLSWVRQAPGQGLEWVGWINYDGGNTQYGQEFQGRVTMTTDTSTGTAYMELRSLRSDDTAVYYCARDSSSSWARWFFDLWGRGTLVTVSS VL: SYVLTQPPLVSVAPGKTARIPCGGNLIGARLVHWYQQKPGQAPVLIIMDDIDRPSGIPERFSGSNSGNTATLTISRVEAGDEADYYCQVWDTGSDPVVFGGGTKLTVL
Fld improvement [fold]: 7.5

// next item, Fld improvement requested
Record request: Fld improvement value, item 13NG0075 (scFv, V domains shown, purified scFv from the mini-recombination library; member of group m20; also called ZZ0SEE-A06; copies: 1 + 1) VH: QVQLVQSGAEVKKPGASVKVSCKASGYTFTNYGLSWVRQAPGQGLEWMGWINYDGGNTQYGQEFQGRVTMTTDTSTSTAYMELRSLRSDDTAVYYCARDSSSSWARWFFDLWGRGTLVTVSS VL: SYVLTQPPSVSVAPGKTARIPCGGNMVGARLVHWYQQKPGQAPVLVIMDDIDRPSGIPERFSGSNSGNTATLTISRVEAGDEADYYCQVWDTGSRPVVFGGGTKLTVL 4.21
